Reported pIC50 values are given for each entry in this list.
system_name: PPO2 wild-type (Amaranthus tuberculatus)
assay_method_text: in vitro inhibition assay, recombinant PPO2 enzyme
Assay type: biochemical
condition_context: Wild-type PPO2, recombinant protein activity in vitro
pIC50: −log10 of the molar value.
quantity_name: pIC50

CS(=O)(=O)NC(=O)c1cc(Oc2ccc(C(F)(F)F)cc2Cl)ccc1[N+](=O)[O-]	8.15
CCOC(=O)C(C)OC(=O)c1cc(Oc2ccc(C(F)(F)F)cc2Cl)ccc1[N+](=O)[O-] (centres unmarked)	9.38

---

system_name: PPO2 ΔG210 in Escherichia coli hemG (Amaranthus tuberculatus, UniProt Q0NZW9, DEL210-210, cells depend on it)
Sequence (Q0NZW9 with tags, fused parts or gaps DEL210-210): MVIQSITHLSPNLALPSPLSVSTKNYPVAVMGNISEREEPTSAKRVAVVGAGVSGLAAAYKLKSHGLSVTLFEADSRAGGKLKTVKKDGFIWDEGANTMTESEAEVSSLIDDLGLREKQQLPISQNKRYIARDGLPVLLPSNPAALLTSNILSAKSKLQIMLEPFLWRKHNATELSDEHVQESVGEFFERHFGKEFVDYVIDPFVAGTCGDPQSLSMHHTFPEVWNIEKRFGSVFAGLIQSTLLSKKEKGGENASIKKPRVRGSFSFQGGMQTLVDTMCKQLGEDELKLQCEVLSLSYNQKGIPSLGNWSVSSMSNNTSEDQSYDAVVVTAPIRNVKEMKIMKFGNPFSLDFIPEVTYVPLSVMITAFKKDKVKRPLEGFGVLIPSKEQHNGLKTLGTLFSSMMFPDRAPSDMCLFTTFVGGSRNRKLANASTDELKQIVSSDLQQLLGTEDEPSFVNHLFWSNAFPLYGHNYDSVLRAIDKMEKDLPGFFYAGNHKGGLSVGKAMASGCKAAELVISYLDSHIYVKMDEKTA
Type: cell-based
condition_context: read-out: IC50 (E. coli hemG growth)
pIC50: −log10 of the molar value.
quantity_name: pIC50

CCOC(=O)C(C)OC(=O)c1cc(Oc2ccc(C(F)(F)F)cc2Cl)ccc1[N+](=O)[O-] (stereo not drawn)	6.45
CC(C)N(C)S(=O)(=O)NC(=O)c1cc(-n2c(=O)cc(C(F)(F)F)n(C)c2=O)c(F)cc1Cl	5.67
C#CCN1C(=O)C(F)(F)Oc2cc(F)c(-n3c(=O)n(C)c(=S)n(C)c3=O)cc21	8.93

---

system_name: PPO2 wild-type (Amaranthus tuberculatus, UniProt Q0NZW9)
assay_method_text: in vitro inhibition assay, recombinant PPO2 enzyme
Format: biochemical
condition_context: Wild-type PPO2, recombinant protein activity in vitro; read-out: IC50
quantity_name: IC50 (nM)

C#CCN1C(=O)C(F)(F)Oc2cc(F)c(-n3c(=O)n(C)c(=S)n(C)c3=O)cc21 [Trifludimoxazin, trifludimoxazin]	0.245

---

Reported IC50 values are given for each entry in this list.
system_name: PPO2 wild-type in Escherichia coli hemG (Amaranthus tuberculatus, UniProt Q0NZW9)
Sequence (Q0NZW9 31-534): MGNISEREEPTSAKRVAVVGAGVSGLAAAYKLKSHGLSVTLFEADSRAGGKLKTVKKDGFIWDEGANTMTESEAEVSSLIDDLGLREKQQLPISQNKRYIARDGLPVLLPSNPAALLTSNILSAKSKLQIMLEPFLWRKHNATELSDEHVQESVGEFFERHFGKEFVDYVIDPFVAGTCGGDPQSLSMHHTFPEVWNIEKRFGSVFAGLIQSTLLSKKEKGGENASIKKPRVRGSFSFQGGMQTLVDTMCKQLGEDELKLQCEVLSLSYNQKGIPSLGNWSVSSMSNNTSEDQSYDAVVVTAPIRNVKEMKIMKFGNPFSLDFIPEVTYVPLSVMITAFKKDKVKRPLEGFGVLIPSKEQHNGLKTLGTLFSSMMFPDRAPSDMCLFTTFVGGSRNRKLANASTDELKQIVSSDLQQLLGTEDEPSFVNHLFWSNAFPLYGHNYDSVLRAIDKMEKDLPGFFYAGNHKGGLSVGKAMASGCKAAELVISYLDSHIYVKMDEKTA
condition_context: read-out: IC50 (E. coli hemG growth)
quantity_name: IC50

C#CCN1C(=O)C(F)(F)Oc2cc(F)c(-n3c(=O)n(C)c(=S)n(C)c3=O)cc21 [Trifludimoxazin, trifludimoxazin]	0.927 nM
CC(C)N(C)S(=O)(=O)NC(=O)c1cc(-n2c(=O)cc(C(F)(F)F)n(C)c2=O)c(F)cc1Cl [Saflufenacil, saflufenacil]	31.9 nM
CCOC(=O)C(C)OC(=O)c1cc(Oc2ccc(C(F)(F)F)cc2Cl)ccc1[N+](=O)[O-] (stereo not drawn) [Lactofen, lactofen]	62.4 nM

Entry source: paper PMC10092844
